Cited source: PubChem BioAssay (Tox21)

# Assay Explanation: qHTS assay to identify small molecule agonists of the sonic hedgehog signaling (Shh) pathway - cell viability counter screen (AID 1259366); also: nearly all actives have a fitted effect of over 50% in size
# Reported Conditions: NIH/3T3 Gli1-Luc viability, CellTiter-Fluor, 24 h; series mostly up to 92.4 µM
# Text: National Center for Advancing Translational Sciences [NCATS] NIH Chemical Genomics Center [NCGC] U.S. Environmental Protection Agency [EPA] National Institutes of Environmental Health Sciences [NIEHS] National Toxicology Program [NTP] U.S. Food and Drug Administration [FDA] The sonic hedgehog (Shh) pathway is essential for normal embryonic development. Dysregulation of the Shh pathway can cause severe developmental defects in organs. […]
Records with an inconclusive call do not appear. Calls of active or inactive are those of the source. Calls follow the shape of the dose curve; as a rule, active = well fitted cell-killing curve with a large enough effect in the repeat runs; inconclusive = weak or mixed curves, or effect the other way; inactive = flat fitted curve, though single readings scatter.
Choose one outcome from this list and give only that: active, inactive

# count of solved cases: 3
Compound: COc1ccc(C(=O)Nc2ccccc2)cc1[N+](=O)[O-]
Label: inactive
--
Compound: O=S(=O)(O)c1cc(Cl)c(Cl)cc1Cl
Label: inactive
--
Compound: CC(Cc1ccccc1)(NC(=O)CN)c1ccccc1 (stereo unspecified)
Label: inactive

Let's switch to this compound now.
*Q* Lab log entry: "CC(C)CCCCCOC(=O)CS" — outcome as called in the assay?
*A* inactive
